growth inhibition: recorded values
- TEST_METHOD_NOTES: NCI Yeast Anticancer Drug Screen. Data for the bub3 strain (AID 167)
- CONDITION_NOTES: S. cerevisiae bub3 mutant strain, at 5.0 µM (retest, dose inferred, filed as 0.5), active compounds read high
This is part of a sample that, as a whole, favours compounds with a hit. Of some 79,000 tested, about 15% had one in any assay.
METRIC: growth inhibition (%)

> print(dat)
                            structure.string             metric  measured.result
 1                  COc1ccccc1NC(=O)CSC(N)=O  growth inhibition                4
 2  CS(=O)(=O)OCCN(CCOS(C)(=O)=O)c1ccc(C=Nc2ccc3ccccc3c2)c(Cl)c1  growth inhibition                0
 3  CCCC(=O)N(C(=O)CCC)C1=C(Cl)C(=O)c2ccccc2C1=O  growth inhibition               91
 4  Nc1ncnc2nc(-c3ccc(C[P+](c4ccccc4)(c4ccccc4)c4ccccc4)cc3)[nH]c12  growth inhibition               11
 5  CCOC(=O)Cc1csc(/N=C\c2c(O)c3ccccc3oc2=O)n1  growth inhibition               20
 6  COc1ccc2c(Cc3cccc([N+](=O)[O-])c3)cncc2c1O  growth inhibition                3
 7             CCNc1nc(C(F)(F)F)nc2nc[nH]c12  growth inhibition               -4
 8                         Cc1ccc(O)cc1CCCCO  growth inhibition              -11
 9  CCCCCCCCCCCCNC(=O)C[n+]1cccc(C(=O)N(C)C)c1  growth inhibition               -9
10  CCOC(=O)c1[nH]cc(C)c1-c1ccc2c(-c3ccccc3)nc3ccccc3n12  growth inhibition                9
11             CC[Si](CC)(CC)c1ccc(CCNCCS)s1  growth inhibition               19
